# testDescription: protein stability index of a GFP-peptide fusion (yeast GPS) (PSI 1-4); higher = more stable; sorted into four equal gates, so the index is relative within each strain
# runParameters: doa10∆
Kindly return TRUE if reported protein stability index is no lower than 3; return FALSE if it is lower.

Here's what some known entries look like.
entrySequence: QQQNASSKLYQMQQQQQ [GAL11]
group: FALSE
--
entrySequence: EKYAAAAPAATSAASGD [RPP0]
group: FALSE
--
entrySequence: VGKTVKQLIMESQEKYM [NSL1]
group: TRUE
--
entrySequence: TANATANVNASAMPAPY [DSN1]
group: TRUE
--
entrySequence: NKEYTLVHGIFGAKMSR [SIN4]
group: FALSE
--
entrySequence: TFTIKEFVSYYYAHSIP [SNU114]
group: FALSE
--
entrySequence: VGVNKDSYLILDTLPSE [RPT5]
group: TRUE
--
entrySequence: YHSAGGRDKHALSLLYH [SSN3]
group: TRUE

// next entry
IN: Quick check: does YIELLPNADDIRDSIPQ [DIS3] have protein stability index greater than or equal to 3?
OUT: FALSE

###

# testDescription: protein stability index of a GFP-peptide fusion (yeast GPS) (PSI 1-4); higher = more stable; sorted into four equal gates, so the index is relative within each strain
# runParameters: doa10∆
Kindly return Yes if reported protein stability index is no lower than 3; return No if it is lower.

Here's what some known entries look like.
entrySequence: VLQNVFKLVSTPSSNSN [MED1]
group: No
--
entrySequence: SAKEIAKASGCDDESGD [MCD1]
group: No
--
entrySequence: LSNLSKDIKANLSSNVN [YCS4]
group: No
--
entrySequence: AKNKSTRINGLNSNNSI [REC8]
group: Yes

// next entry
IN: Quick check: does LISDQLLEFFELVFSKG [YML103C/NUP188] have protein stability index greater than or equal to 3?
OUT: No

###

Would you mind telling me the reported protein stability index of each entry?
# testDescription: protein stability index of a GFP-peptide fusion (yeast GPS) (PSI 1-4); higher = more stable; sorted into four equal gates, so the index is relative within each strain
# runParameters: ubr1∆
Give bare numbers.

Worked cases, answers included:
entrySequence: VNDRYQIPTPNNTVDPG [CSI1]
protein stability index: 1.55
--
entrySequence: DQHVINILWAIYNSASK [YCS4]
protein stability index: 1.59
--
entrySequence: GGKIINKLGNDPSLNLK [BRR2]
protein stability index: 2.16
--
entrySequence: ELHKEGTISKLENKENG [SMC2]
protein stability index: 1.62

Could you report protein stability index for every entry in the following list?
1. MFGIRSGNNNGGFTNLT [YDL088C/ASM4]
2. NDHSKSANPKKTTITRV [SWI3]

OUT:
[3.4, 2.97]

IN: Would you mind telling me what protein stability index value was observed for INFERIDEVFSWYLNTF [GRR1] ?
OUT: 1.82

###

# testDescription: protein stability index of a GFP-peptide fusion (yeast GPS) (PSI 1-4); higher = more stable; sorted into four equal gates, so the index is relative within each strain
# runParameters: san1∆
Would you mind telling me the reported protein stability index of each entry?
Numbers only.

Worked cases, answers included:
entrySequence: ESAVKYALAAKDRFDID [RPN2]
protein stability index: 2.87

entrySequence: ELDTASRILKAQSRNVE [YGR119C/NUP57]
protein stability index: 2.03

entrySequence: NGGDKELEMIGGTNEDD [YCS4]
protein stability index: 2.46

entrySequence: GYVIKVFNNGIVVLVPK [DIS3]
protein stability index: 2.39

Could you report protein stability index for every entry in the following list?
1. SEKLITKYFEPTSTENN [ECM29]
2. LHEKYLTEGGSILEEKI [SMC1]
3. IKVTVQLKIQNRQAAAS [RPL12A]
4. NFNASLQLTTNTEQGDS [SNM1]
5. LGLAKSVHHARVLITQR [RPS9A]
6. MERFSVLCNSNISKSRA [RRP6]

OUT:
3.04
3.01
1.75
2.49
2.61
1.98

Could you report protein stability index for every entry in the following list?
1. REKRDRTHFKRMRFPPF [PRP8]
2. MLPGSSNGGGKVKPIRG [RPO31]
3. FQETLDSTVVYPLPKFP [MED8]

OUT:
1: 2.22; 2: 3.15; 3: 2.95

Could you report protein stability index for every entry in the following list?
1. AEEKREAVIDEKLEVIA [ITC1]
2. KYIALQVIVDIFSVHGN [YCG1]

OUT:
1: 3.03; 2: 1.14
